tested.system: 5-HT2C (Homo sapiens, UniProt P28335)
Sequence (P28335 33-458): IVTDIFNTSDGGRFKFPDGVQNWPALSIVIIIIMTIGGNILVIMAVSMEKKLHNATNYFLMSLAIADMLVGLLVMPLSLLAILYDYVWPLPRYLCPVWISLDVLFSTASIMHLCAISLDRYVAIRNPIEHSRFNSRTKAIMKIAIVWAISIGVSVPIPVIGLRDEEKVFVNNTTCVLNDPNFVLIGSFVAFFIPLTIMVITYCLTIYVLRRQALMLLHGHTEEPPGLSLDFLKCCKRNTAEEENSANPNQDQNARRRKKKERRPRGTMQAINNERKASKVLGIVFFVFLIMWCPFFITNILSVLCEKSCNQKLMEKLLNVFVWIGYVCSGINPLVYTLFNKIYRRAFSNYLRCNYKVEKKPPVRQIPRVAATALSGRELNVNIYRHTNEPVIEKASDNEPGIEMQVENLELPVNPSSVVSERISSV
assay: 5-HT2 receptor-mediated Gq activation via Gq/γ1 dissociation BRET
Assay type: cell-based
Set-up: expressed in transfected cells; host or cells: HEK293T
pEC50: −log10 of the molar value.
result.type: pEC50

> print(dat)
                                   compound  result.type    test.value
1            CNC[C@H]1C[C@@H]1c1cc(F)ccc1OC        pEC50  7.00 to 8.00
2  CSc1ccc(F)cc1C1CC1CN(C)C (stereo not drawn)        pEC50  7.00 to 8.00

Next compound, pEC50 to be filled in.
The measured pEC50 associated with CNCC1CC1c1cc(F)ccc1SC (stereo not drawn) reads > 8.00
